ASSAYED_SYSTEM: T1, Cyno B7-H4-Fc (Cyno B7H4 ECD, FcTM_6His) (cynomolgus monkey)
T1 construct: extracellular domain; also called cynomolgus B7-H4-Fc
EXPERIMENT: HTRF binding, murine IgG1
OBSERVABLE: pEC50
In simple prose, pEC50 is minus the logarithm base ten of a concentration in moles per litre.

Answered cases to consult:
INSERT INTO measurements (binder, test_value) VALUES
  ('ZY0EQD-E02 murine IgG1 (antibody, V domains shown) VH: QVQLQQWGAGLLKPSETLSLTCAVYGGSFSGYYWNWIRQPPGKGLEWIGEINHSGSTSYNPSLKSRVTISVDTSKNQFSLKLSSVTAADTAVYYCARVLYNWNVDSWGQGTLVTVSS VL: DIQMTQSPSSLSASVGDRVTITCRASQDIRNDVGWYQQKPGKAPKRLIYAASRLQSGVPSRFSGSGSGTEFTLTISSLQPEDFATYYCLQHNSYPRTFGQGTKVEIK', 9.66),
  ('ZY0EPQ-E02 murine IgG1 (antibody, V domains shown) VH: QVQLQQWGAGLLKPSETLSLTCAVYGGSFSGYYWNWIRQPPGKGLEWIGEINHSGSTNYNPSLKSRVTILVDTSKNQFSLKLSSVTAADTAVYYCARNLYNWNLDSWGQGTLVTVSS VL: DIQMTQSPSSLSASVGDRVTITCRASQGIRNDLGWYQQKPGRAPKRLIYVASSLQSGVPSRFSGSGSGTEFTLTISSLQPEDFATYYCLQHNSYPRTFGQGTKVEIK', 9.42),
  ('ZY0EP0-C07 murine IgG1 (antibody, V domains shown, also called ZY0EPO-C07) VH: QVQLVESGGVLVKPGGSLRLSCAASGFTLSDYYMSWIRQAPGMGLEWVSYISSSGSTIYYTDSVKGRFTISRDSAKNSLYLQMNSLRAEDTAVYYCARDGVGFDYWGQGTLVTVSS VL: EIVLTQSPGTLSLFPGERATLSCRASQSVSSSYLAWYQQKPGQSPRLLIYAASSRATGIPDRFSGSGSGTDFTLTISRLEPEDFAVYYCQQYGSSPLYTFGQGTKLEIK', 8.89);

Summary for this binder, ZY0EO5-E07 murine IgG1 (antibody, V domains shown, also called ZY0E05-E07; E05-E07) VH: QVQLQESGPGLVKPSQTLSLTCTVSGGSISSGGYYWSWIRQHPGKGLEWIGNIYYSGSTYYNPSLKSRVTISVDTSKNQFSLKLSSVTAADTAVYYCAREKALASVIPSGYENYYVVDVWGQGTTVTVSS VL: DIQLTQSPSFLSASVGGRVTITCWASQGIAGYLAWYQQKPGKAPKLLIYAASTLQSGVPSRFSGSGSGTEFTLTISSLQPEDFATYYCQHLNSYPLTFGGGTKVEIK : pEC50 is 9.15
